Test: Oral bioavailability in Beagle dog at 0.5 mg/kg administered as suspension in 0.5% methylcellulose
Format: ADME, organism-based, Canis lupus familiaris
Details: in vivo
RECORDED_METRIC: bioavailability (%)

> print(dat)
                                     smiles  recorded.metric  scale.unit  value.measured
1  Cc1cc(Cl)cc(OCCn2cc(F)cn2)c1-c1nc(N)nc2c1CN(C(=O)NCC(C)(F)F)C2  bioavailability           %              58

###

Assay: Permeability from apical to basolateral side of MDCK cells
Type: ADME, cell-based, Canis lupus familiaris
Details: dog, read-out: permeability
RECORDED_METRIC: Papp A→B (×10⁻⁶ cm/s)

> print(dat)
                                     smiles  scale.unit  value.measured
1  Cc1cc(Cl)cc(OCCn2cc(F)cn2)c1-c1nc(N)nc2c1CN(C(=O)NCC(C)(F)F)C2  ×10⁻⁶ cm/s             2.4

###

Experiment: Volume of distribution at steady state in Beagle dog at 0.5 mg/kg, iv
Assay type: ADME, organism-based, Canis lupus familiaris
Design: dose 0.5 mg/kg, route intravenous
Details: in vivo, read-out: Vdss
RECORDED_METRIC: Vd (L/kg)

> print(dat)
                                     smiles  value.measured
1  Cc1cc(Cl)cc(OCCn2cc(F)cn2)c1-c1nc(N)nc2c1CN(C(=O)NCC(C)(F)F)C2               8

###

Assay: in vitro
Details: human, Caco-2
Quick reference: Papp A→B of the listed items.
RECORDED_METRIC: Papp A→B (×10⁻⁶ cm/s)

> print(dat)
                                     smiles  value.measured
1  Nc1nc2c(c(-c3c(Cl)cc(Cl)cc3OCCn3cccn3)n1)CN(C(=O)NCC(F)(F)F)C2            0.96
2  Nc1nc2c(c(-c3c(Cl)cc(Cl)cc3OCCn3cccn3)n1)CN(C(=O)NCC(F)F)C2             1.2
3  Nc1nc2c(c(-c3c(Cl)cc(Cl)cc3OCCn3cccn3)n1)CN(C(=O)NC13CC(C1)C3)C2               5
4  Nc1nc2c(c(-c3c(Cl)cc(Cl)cc3OCCn3cccn3)n1)CN(C(=O)NC1CCC1)C2             4.7
5  Nc1nc2c(c(-c3c(Cl)cc(Cl)cc3OCCn3cccn3)n1)CN(C(=O)NC1CC1)C2             0.5
6  Nc1nc2c(c(-c3c(Cl)cc(Cl)cc3OCCn3cccn3)n1)CN(C(=O)NC1CC(F)(F)C1)C2             1.5

###

Assay: Solubility of the compound
Assay type: physicochemical
RECORDED_METRIC: solubility

> print(dat)
                                     smiles  value.measured
1  Cc1cc(Cl)cc(OCCn2cc(F)cn2)c1-c1nc(N)nc2c1CN(C(=O)NCC(C)(F)F)C2          200 µM

###

Assay: Volume of distribution at steady state in Han Wistar rat at […], iv
Format: ADME, organism-based
Design: dose 2.5 mg/kg, route intravenous
Conditions: in vivo, read-out: Vdss
RECORDED_METRIC: Vd (L/kg)

> print(dat)
                                     smiles  recorded.metric  scale.unit  value.measured
1  Cc1cc(Cl)cc(OCCn2cc(F)cn2)c1-c1nc(N)nc2c1CN(C(=O)NCC(C)(F)F)C2               Vd        L/kg             9.6
